Listed binders paired with reported SPOT intensity
Molecular target: Myo3, P36006
Assay: SPOT array
Conditions: median of control spots 468

# BINDER, SPOT intensity
records = [
    ("PHNPSPFFPPPDFND", 319),
    ("FIRKRAPTPPAPSRS", 35),
    ("PSTMDFPKLPSFQNS", 51),
    ("PPIPNAPLSPAPAVP", 483),
]

Hello, the source for this data is paper PMC2756588, in case you need it.
